Source listed as ChEMBL document CHEMBL1137331.

Tested on: T-cell
Assay: Inhibition of anti CD3/anti CD28-induced T cell proliferation
Assay type: functional, cell-based
Conditions: Homo sapiens
pIC50: −log10 of the molar value.
Assign a class from recorded pIC50; defined classes: low class = under 7, middle class = from 7 up to 8, high class = 8 and over

Each compound maps to one class by pIC50. Which class for Cc1cccc(Cl)c1NC(=O)c1cnc(NC(=O)C2CC2)s1 ? low class

Each compound maps to one class by pIC50. Which class for Cc1cccc(C)c1NC(=O)c1cnc(Nc2cccnn2)s1 ? low class

Each compound maps to one class by pIC50. Which class for Cc1nc(NCCO)cc(Nc2ncc(C(=O)Nc3c(C)cccc3Cl)s2)n1 ? middle class

Each compound maps to one class by pIC50. Which class for Cc1cccc(Cl)c1NC(=O)c1cnc(Nc2cccc(NCCCn3ccnc3)n2)s1 ? high class

----------
Task for the reader: assign each of the following molecules its reported IC50.

Please tell me: IC50 of Cc1cc(C)c(NC(=O)c2sc(NC(=O)Nc3ccccc3)nc2C)c(C)c1 , system Tyrosine-protein kinase Lck (Homo sapiens, UniProt P06239)? 160 nM

Please tell me: IC50 of Cc1cc(Nc2ncc(C(=O)Nc3c(C)cccc3Cl)s2)nc(C)n1 , system Tyrosine-protein kinase Lck (Homo sapiens, UniProt P06239)? 1 nM

Please tell me: IC50 of Cc1cccc(Cl)c1NC(=O)c1cnc(Nc2cccc(NCCO)n2)s1 , system Tyrosine-protein kinase Lck (Homo sapiens, UniProt P06239)? < 0.2 nM

Please tell me: IC50 of Cc1cccc(Cl)c1NC(=O)c1cnc(Nc2cccc(NCCCN3CCOCC3)n2)s1 , system Tyrosine-protein kinase Lck (Homo sapiens, UniProt P06239)? 0.5 nM

----------
measured-metric: pIC50
# reply with the number alone; pIC50 is -log10 of concentration in mol/L

Please tell me: pIC50 of Cc1cc(C)c(NC(=O)c2sc(NC(=O)Nc3ccccc3)nc2C)c(C)c1 , system Proto-oncogene tyrosine-protein kinase LCK (Mus musculus)? 7.05

Please tell me: pIC50 of CC(=O)Nc1nc(C)c(C(=O)Nc2c(C)cc(C)cc2C)s1 , system Proto-oncogene tyrosine-protein kinase LCK (Mus musculus)? 6.29

----------
Task for the reader: assign each of the following compounds its reported IC50.
Test system: T-cell
Assay: Inhibition of anti CD3/anti CD28-induced T cell proliferation
Type: functional, cell-based
Details: Homo sapiens

Given Cc1nc(Nc2ncc(C(=O)Nc3c(C)cccc3Cl)s2)cc(N2CCOCC2)n1 , state its recorded IC50. 5 nM

Given Cc1cc(C)c(NC(=O)c2sc(N)nc2C)c(C)c1 , state its recorded IC50. > 10000 nM

Given Cc1cccc(Cl)c1NC(=O)c1cnc(Nc2cccnc2)s1 , state its recorded IC50. 870 nM

Given Cc1cccc(Cl)c1NC(=O)c1cnc(Nc2cccnn2)s1 , state its recorded IC50. 350 nM

Given Cc1cccc(Cl)c1NC(=O)c1cnc(Nc2ccncc2)s1 , state its recorded IC50. 270 nM

Given Cc1cc(Nc2ncc(C(=O)Nc3c(C)cccc3Cl)s2)nc(C)n1 , state its recorded IC50. 80 nM

Given Cc1cc(C)c(NC(=O)c2cnc(Nc3cc(C)nc(C)n3)s2)c(C)c1 , state its recorded IC50. 140 nM

Given Cc1cnc(Nc2ncc(C(=O)Nc3c(C)cccc3Cl)s2)c(C)n1 , state its recorded IC50. 570 nM

Given Cc1cccc(Cl)c1NC(=O)c1cnc(NC(=O)c2ccsc2)s1 , state its recorded IC50. > 2000 nM

Given Cc1nc(Nc2ncc(C(=O)Nc3c(C)cccc3Cl)s2)cc(N2CCC(CO)CC2)n1 , state its recorded IC50. 4 nM

Given Cc1cc(C)c(NC(=O)c2cnc(Nc3cnccn3)s2)c(C)c1 , state its recorded IC50. 500 nM

----------
Molecular target: Tyrosine-protein kinase Yes (Homo sapiens, UniProt P07947)
Sequence (P07947 whole entry): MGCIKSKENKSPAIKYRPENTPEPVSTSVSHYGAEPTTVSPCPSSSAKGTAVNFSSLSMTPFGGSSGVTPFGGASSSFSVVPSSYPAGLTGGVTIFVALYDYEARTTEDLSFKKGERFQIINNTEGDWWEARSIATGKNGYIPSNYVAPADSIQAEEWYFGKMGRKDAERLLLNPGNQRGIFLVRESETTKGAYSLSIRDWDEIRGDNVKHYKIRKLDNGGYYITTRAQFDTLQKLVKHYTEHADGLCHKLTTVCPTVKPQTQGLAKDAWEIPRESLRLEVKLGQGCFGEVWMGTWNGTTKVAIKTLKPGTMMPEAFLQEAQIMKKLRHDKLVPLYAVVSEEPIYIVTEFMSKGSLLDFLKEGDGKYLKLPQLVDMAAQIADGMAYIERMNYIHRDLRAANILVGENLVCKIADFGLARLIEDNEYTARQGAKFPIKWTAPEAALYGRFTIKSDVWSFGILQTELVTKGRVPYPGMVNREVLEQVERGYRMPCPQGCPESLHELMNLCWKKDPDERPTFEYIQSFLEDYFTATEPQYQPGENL
measured-metric: IC50 (nM)
# output: bare number, implied unit nM

Please tell me: IC50 of Cc1cc(Nc2ncc(C(=O)Nc3c(C)cccc3Cl)s2)nc(C)n1 , system Tyrosine-protein kinase Yes (Homo sapiens, UniProt P07947)? 2

----------
measured-metric: pIC50
# reply with the number alone; pIC50 is -log10 of concentration in mol/L

Please tell me: pIC50 of Cc1nc(Nc2ncc(C(=O)Nc3c(C)cccc3Cl)s2)cc(N2CCOCC2)n1 , system Tyrosine-protein kinase Lck (Homo sapiens)? 8.89

Please tell me: pIC50 of Cc1cccc(Cl)c1NC(=O)c1cnc(Nc2ccncc2)s1 , system Tyrosine-protein kinase Lck (Homo sapiens)? 8.03

Please tell me: pIC50 of Cc1cc(C)nc(Nc2ncc(C(=O)Nc3c(C)cccc3Cl)s2)n1 , system Tyrosine-protein kinase Lck (Homo sapiens)? 7.30

Please tell me: pIC50 of Cc1cccc(Cl)c1NC(=O)c1cnc(NC(=O)c2ccsc2)s1 , system Tyrosine-protein kinase Lck (Homo sapiens)? 7.77

Please tell me: pIC50 of Cc1cc(C)c(NC(=O)c2sc(NC(=O)c3ccsc3)nc2C)c(C)c1 , system Tyrosine-protein kinase Lck (Homo sapiens)? 6.74

Please tell me: pIC50 of Cc1cccc(Cl)c1NC(=O)c1sc(NC(=O)c2cccs2)nc1C , system Tyrosine-protein kinase Lck (Homo sapiens)? 6.89

----------
Task for the reader: assign each of the following compounds its reported pIC50.
Tested on: T-cell
Assay: Inhibition of anti CD3/anti CD28-induced T cell proliferation
Assay type: functional, cell-based
Conditions: Homo sapiens
# reply with the number alone; pIC50 is -log10 of concentration in mol/L

Please tell me: pIC50 of Cc1cccc(Cl)c1NC(=O)c1cnc(Nc2cc(N3CCOCC3)ncn2)s1 , system T-cell? 8.52

Please tell me: pIC50 of Cc1nc(Nc2ncc(C(=O)Nc3c(C)cccc3Cl)s2)cc(N2CCN(CCO)CC2)n1 [DASATINIB] , system T-cell? 8.52

Please tell me: pIC50 of Cc1cccc(Cl)c1NC(=O)c1cnc(Nc2ccccn2)s1 , system T-cell? 6.85

Please tell me: pIC50 of Cc1cccc(C)c1NC(=O)c1cnc(Nc2ccccn2)s1 , system T-cell? 6.74

Please tell me: pIC50 of Cc1cc(C)c(NC(=O)c2cnc(Nc3ccccn3)s2)c(C)c1 , system T-cell? 6.29

----------
Target: Tyrosine-protein kinase Lyn (Homo sapiens, UniProt P07948)
Sequence (P07948 whole entry): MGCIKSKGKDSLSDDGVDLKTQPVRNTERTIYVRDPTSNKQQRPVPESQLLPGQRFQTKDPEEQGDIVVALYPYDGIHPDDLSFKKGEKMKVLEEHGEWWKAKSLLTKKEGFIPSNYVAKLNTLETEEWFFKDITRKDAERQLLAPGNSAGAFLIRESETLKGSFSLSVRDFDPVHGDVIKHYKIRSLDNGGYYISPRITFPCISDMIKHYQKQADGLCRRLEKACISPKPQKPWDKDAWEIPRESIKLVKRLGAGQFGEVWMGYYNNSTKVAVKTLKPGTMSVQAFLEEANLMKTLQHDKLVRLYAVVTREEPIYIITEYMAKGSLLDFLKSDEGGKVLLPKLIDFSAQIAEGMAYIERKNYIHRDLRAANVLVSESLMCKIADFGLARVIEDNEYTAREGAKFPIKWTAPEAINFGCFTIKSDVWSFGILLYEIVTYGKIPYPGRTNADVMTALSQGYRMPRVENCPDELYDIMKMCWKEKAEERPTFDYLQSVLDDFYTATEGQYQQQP
measured-metric: IC50 (nM)
# output: bare number, implied unit nM

Given Cc1cc(Nc2ncc(C(=O)Nc3c(C)cccc3Cl)s2)nc(C)n1 , state its recorded IC50. 4

----------
measured-metric: IC50 (nM)
# output: bare number, implied unit nM

Please tell me: IC50 of Cc1cc(Nc2ncc(C(=O)Nc3c(C)cccc3Cl)s2)nc(C)n1 , system UniProt P04626? 500

----------
This document collects pIC50 values reported for Tyrosine-protein kinase Lck (Homo sapiens).
# reply with the number alone; pIC50 is -log10 of concentration in mol/L

Given Cc1cc(C)c(NC(=O)c2cnc(Nc3cnccn3)s2)c(C)c1 , state its recorded pIC50. 8.31

Given Cc1cccc(Nc2ncc(C(=O)Nc3c(C)cccc3Cl)s2)n1 , state its recorded pIC50. 9.22

Given Cc1cccc(Cl)c1NC(=O)c1cnc(Nc2cc(N3CCOCC3)ncn2)s1 , state its recorded pIC50. 9.30

Given Cc1cc(C)nc(Nc2ncc(C(=O)Nc3c(C)cccc3Cl)s2)c1 , state its recorded pIC50. 8.40

Given Cc1nc(NCCCN2CCOCC2)cc(Nc2ncc(C(=O)Nc3c(C)cccc3Cl)s2)n1 , state its recorded pIC50. 9.15

Given Cc1nc(Nc2ncc(C(=O)Nc3c(C)cccc3Cl)s2)cc(N2CCC(CO)CC2)n1 , state its recorded pIC50. 9.15

Given Cc1cccc(C)c1NC(=O)c1cnc(Nc2cccnn2)s1 , state its recorded pIC50. 9.52

Given Cc1cccc(Cl)c1NC(=O)c1sc(NC(=O)c2ccsc2)nc1C , state its recorded pIC50. 6.41

Given Cc1nc(NCCO)cc(Nc2ncc(C(=O)Nc3c(C)cccc3Cl)s2)n1 , state its recorded pIC50. 9.70

----------
Test system: T-cell
Assay: Inhibition of anti CD3/anti CD28-induced T cell proliferation
Type: functional, cell-based
Details: Homo sapiens
Task for the reader: assign each of the following compounds its reported IC50.
# output: bare number, implied unit nM

Given Cc1nc(NCCCN2CCOCC2)cc(Nc2ncc(C(=O)Nc3c(C)cccc3Cl)s2)n1 , state its recorded IC50. 7

Given Cc1cc(C)nc(Nc2ncc(C(=O)Nc3c(C)cccc3Cl)s2)c1 , state its recorded IC50. 140

Given Cc1cccc(Nc2ncc(C(=O)Nc3c(C)cccc3Cl)s2)n1 , state its recorded IC50. 110

Given Cc1cccc(Cl)c1NC(=O)c1cnc(Nc2cccc(NCCCN3CCOCC3)n2)s1 , state its recorded IC50. 8

Given Cc1ccnc(Nc2ncc(C(=O)Nc3c(C)cccc3Cl)s2)c1 , state its recorded IC50. 80

Given Cc1cccc(Cl)c1NC(=O)c1cnc(Nc2cccc(NCCO)n2)s1 , state its recorded IC50. 75
